Reference for the values: PubChem BioAssay AID1026

molecular target: Bifunctional epoxide hydrolase 2 (Homo sapiens); assay: sEH inhibitor concentration-response potency, dose response, biochemical, human sEH, fluorescence, Infinite200 (AID 1026); conditions: recombinant human sEH, fluorogenic substrate, at 0.2 µM, active compounds read high
# inhibition >= 60% gives YES, anything below gives NO

molecule: NS(=O)(=O)c1ccc(CNC(=O)/C=C/c2c(Cl)cccc2Cl)cc1
targetOrTestSystem: Bifunctional epoxide hydrolase 2 (Homo sapiens)
classification: NO

Query: Hi, just wondering whether `O=C(CCCN1C(=O)c2ccccc2C1=O)Nc1ccc(S(=O)(=O)N2CCCCC2)cc1` shows inhibition of 60% or higher.
Response: NO

Query: Hi, just wondering whether CC(Cc1cccs1)NC(=O)Nc1ccc(Cl)c(Cl)c1 (stereo unspecified) shows inhibition of 60% or higher.
Response: YES

Query: Hi, just wondering whether `Cc1cc2nc(-c3ccc(SCC(=O)N4CCc5ccccc54)nc3)[nH]c2cc1C` shows inhibition of 60% or higher.
Response: NO

Query: Hi, just wondering whether `CCCCCC(=O)Nc1ccc2oc(-c3ccncc3)nc2c1` shows inhibition of 60% or higher.
Response: NO
